target_of_assay: COX-1 (Ovis aries, UniProt P05979)
Construct: purchased BioVision
Sequence (P05979 25-600): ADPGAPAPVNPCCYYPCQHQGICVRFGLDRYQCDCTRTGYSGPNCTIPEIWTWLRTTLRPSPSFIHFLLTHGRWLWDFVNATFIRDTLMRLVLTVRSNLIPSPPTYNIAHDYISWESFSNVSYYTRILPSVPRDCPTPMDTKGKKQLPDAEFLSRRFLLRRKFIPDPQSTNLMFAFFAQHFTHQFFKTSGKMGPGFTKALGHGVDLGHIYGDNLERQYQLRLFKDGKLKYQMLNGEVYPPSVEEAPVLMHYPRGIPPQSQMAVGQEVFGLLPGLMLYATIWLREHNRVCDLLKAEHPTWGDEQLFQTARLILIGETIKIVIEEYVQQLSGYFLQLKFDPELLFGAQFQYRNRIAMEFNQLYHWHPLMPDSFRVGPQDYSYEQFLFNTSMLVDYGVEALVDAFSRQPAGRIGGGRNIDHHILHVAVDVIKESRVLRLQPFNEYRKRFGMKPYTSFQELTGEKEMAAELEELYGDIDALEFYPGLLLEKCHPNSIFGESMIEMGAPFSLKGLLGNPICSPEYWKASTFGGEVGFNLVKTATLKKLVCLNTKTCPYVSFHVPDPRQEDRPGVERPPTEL
assay_remarks: in vitro COX-1 enzyme inhibition assay (fluorometric inhibitor screening kit)
Assay type: biochemical, ovine
protocol_conditions: triplicates at five concentrations; read-out: IC50 COX-1
# reported pIC50; entries follow
For clarity, pIC50 is expressed as the negative log10 of concentration in mol/L.

Below, each entry is followed by its recorded pIC50 result.
- molecule: "CC(C)=CCc1c(O)ccc(C(=O)C2C(c3c(O)cc(O)c4c(=O)c(CC=C(C)C)c(-c5ccc(O)cc5O)oc34)C=C(C)CC2c2ccc(O)cc2O)c1O (centres unmarked)"
  reported_measurement: 4.43
- molecule: "CC(C)=CCC/C(C)=C/Cc1cc(C2CC(=O)c3c(O)cc(O)cc3O2)c(O)cc1O (centres unmarked)"
  reported_measurement: 4.34

Continue with the next molecule.
So what's the measured pIC50 for this one? CC(C)=CCc1c(-c2ccc3c(c2O)C=CC(C)(C)O3)oc2cc(O)cc(O)c2c1=O 4.44

These data points were gathered from paper PMC8036738.
